# System: Acinetobacter baumannii
# protocolText: Antibacterial activity against Acinetobacter baumannii BAA1605
# Type: functional
parameter: MIC

Examples with their reported MIC follow.
O=C(NNc1ccc(Cl)cc1)c1ccco1; ≤ 0.125 µg/mL
O=C(NNc1ccc(Cl)cc1)c1cccc(F)n1; ≤ 0.125 µg/mL
CCC(=O)NNc1ccc(Cl)cc1; ≤ 0.125 µg/mL

Return value of MIC for input CCOC(=O)CNNC(=O)c1ccc2ccccc2n1 , no commentary.
> 64 µg/mL

Return value of MIC for input O=C(NNc1ccc(Cl)cc1)c1ccc(F)cn1 , no commentary.
≤ 0.125 µg/mL
